- system.tested: T1, B-Raf kinase, P15056
- T1 chain: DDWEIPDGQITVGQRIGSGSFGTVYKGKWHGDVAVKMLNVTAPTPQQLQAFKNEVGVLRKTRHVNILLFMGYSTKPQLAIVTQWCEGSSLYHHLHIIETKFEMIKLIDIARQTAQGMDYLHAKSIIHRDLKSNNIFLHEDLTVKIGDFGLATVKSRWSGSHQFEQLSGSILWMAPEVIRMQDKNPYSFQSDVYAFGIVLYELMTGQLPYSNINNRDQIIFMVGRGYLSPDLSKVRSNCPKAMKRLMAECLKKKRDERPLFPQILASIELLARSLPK
- test.summary: intrinsic fluorescence titration (ITF) of B-Raf in solution
quantity.measured: Kd (nM)

(1) VARKTRHVNILLFMG (modifications not checked) [SEQ ID NO: 21 (504-518 L505A, …)]
(2) LRKKRHVNELLFMG (modifications not checked) [SEQ ID NO: 37 (cyclo 508-513 T508K, I513E, …)]
Ask: Param pair: 1 , 2 . Output: the one whose Kd is numerically greater. Refer to your chosen entry by its label in the reply.
Reply: 2
(2: 1890 nM, 1: 450 nM)

(I) GVLRKTRHVNILIFMGYST (modifications not checked) [SEQ ID NO: 12 (503-521 L515I, …)]
(II) GVLEKTRHVNILLFMGYST (modifications not checked) [SEQ ID NO: 5 (503-521 R506E, …)]
Ask: Param pair: I , II . Output: the one whose Kd is numerically greater. Refer to your chosen entry by its label in the reply.
Reply: I
(I: 4100 nM, II: 1090 nM)
